Overview of recorded solubility for various molecules
- assay.summary: physchem
- Assay type: physicochemical
Where a SMILES comes first, the peptide text is derived from it. Bridges are numbered along the chain shown (N, C = ends). Roman numbers before positions name the chains, in order.

molecule	solubility
C[C@H](N)C(=O)N[C@@H](CSSC[C@H](NC(=O)[C@H](C)N)C(=O)O)C(=O)O [[AlaCys]2 dimer, N,N′-di-L-Alanyl-L-Cystine] (I: H-Ala-Cys-OH / II: H-Ala-Cys-OH; disulfide I:2-II:2)	~8.7 mg/mL

Ask: Fill in the blank: the reported solubility of C[C@H](N)C(=O)N[C@@H](Cc1ccc(O)cc1)C(=O)O [AlaTyr, alanyl tyrosine] (H-Ala-Tyr-OH) is ____.
Reply: ~15.4 mg/mL
